system: D54 LucT luciferase reporter counterscreen, luminescence, 24 h; experiment: reporter signal increase, D54 LucT cells – cell-based, luminescence, cherry pick, counter-screen for N-linked glycosylation inhibitor project, dose response (AID 624404)
Records with an inconclusive call do not appear. The source made the active and inactive calls.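 Rule for the calls: active = luciferase signal rise whose fitted curve crosses a set activity limit at or below the top valid tested dose; inconclusive = flat fit with 30 to 70% rise, or poor fit; inactive = signal falling, flat within 30%, or crossing above top dose.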
# output must be one of true for active, false for inactive

[ask] Identify the outcome logged in this assay for the compound shown: Cc1ccc2[nH]c(=O)c3cc(C(=O)NC(C)C)sc3c2c1
[reply] true

[ask] Queued: Cc1cc(NS(=O)(=O)c2ccc(NC(=O)COc3c(C)cc(Br)cc3C)cc2)no1
[reply] true

[ask] Queued: COc1cc2cnc(-c3ccccc3)cc2cc1OC
[reply] true

[ask] Queued: COc1ccc(/C=C/C(=O)c2ccccc2)cc1COc1ccccc1F
[reply] false

[ask] Queued: Cc1c2cnccc2c(C)c2c1oc1ccccc12
[reply] true

[ask] Queued: Cc1noc(C)c1-c1ccc(C(=O)NCCc2ccccc2)c2occc12
[reply] true

[ask] Queued: O=C(NCCN1C(=O)S/C(=C\c2ccccc2Cl)C1=O)C1=COCCO1
[reply] true

[ask] Queued: COc1ccccc1NS(=O)(=O)c1ccc(C(=O)Nc2ncccc2O)cc1
[reply] true

[ask] Queued: COc1ccc2c(c1)C(=O)N1[C@H]3c4cc(OC)ccc4OC[C@@H]3[C@H](c3ccccc3)[C@]1(C)C(=O)N2
[reply] true

[ask] Queued: Cc1ccc(S(=O)(=O)Nc2ccc3c(c2)n(C)c(=O)n3C)cc1
[reply] true

[ask] Queued: COc1ccc(N/C=C/C(=O)c2cc(OC)c(OC)c(OC)c2)cc1
[reply] true

[ask] Queued: O=C1c2ccccc2C(=O)N1Cc1cnc(N2CCN(c3ccccc3)CC2)s1
[reply] true

[ask] Queued: Nc1cc2c(cc1Br)-c1c(C(=O)O)cccc1C2O (centres undefined)
[reply] true

[ask] Queued: Nc1nc(-c2ccccn2)nc(N)c1Cc1ccc(Cl)cc1Cl
[reply] true

[ask] Queued: Nc1c(N(Cc2ccccc2)C(=O)COc2ccc([N+](=O)[O-])cc2)c(=O)[nH]c(=O)n1Cc1ccccc1
[reply] true

[ask] Queued: Cc1ccc2c(c1)NC(=O)[C@@]1(C)[C@@H](c3ccccc3)[C@H]3COc4ccccc4[C@@H]3N1C2=O
[reply] true

[ask] Queued: CC12CC[C@H]3[C@@H](CCC4(O)C[C@H](O)CCC34/C=N/NC(=O)c3ccccc3O)C1(O)CCC2C1=CC(=O)OC1 (some centres undefined)
[reply] true

[ask] Queued: Cc1ccc2c(c1)cc(CN(C(=O)N1CCOCC1)C1CCCC1)c1nnnn12
[reply] true

[ask] Queued: O=C(c1ncn(Cc2ccccc2)c1C(=O)N1CCN(c2ccccc2)CC1)N1CCN(c2ccccc2)CC1
[reply] true

[ask] Queued: Cc1cccc(Nc2nc(N)nc(-c3oc4ccccc4c3C)n2)c1
[reply] true

[ask] Queued: Cc1ccc2nc(-c3ccncc3)cc(C(=O)Nc3ccncc3)c2c1
[reply] true

[ask] Queued: COc1ccc(Nc2nc3cc(-c4sccc4C)sc3c(=O)n2C)cc1OC
[reply] true

[ask] Queued: Brc1ccc(C2=Nn3c(nnc3-c3n[nH]c4c3CCC4)SC2)cc1
[reply] true

[ask] Queued: COc1ccc(-n2c(NNC(C)=O)nc3sc4c(c3c2=O)CCCC4)cc1
[reply] true

[ask] Queued: N#Cc1c(NC(=O)/C=C/c2ccco2)sc2c1CCCC2
[reply] true

[ask] Queued: COc1ccc(-n2c(=S)[nH]c3cc(C(=O)NC4CCCCC4)ccc3c2=O)c(OC)c1
[reply] true

[ask] Queued: CN(CCCNC(=O)CCCOc1cc(=O)n(C)c2ccccc12)Cc1ccccc1
[reply] true

[ask] Queued: CCN(CC)c1ccc(/C=N/NC(=O)c2cnccn2)cc1
[reply] true

[ask] Queued: CSc1cccc(NC(=O)CCCOc2cc(=O)n(C)c3ccccc23)c1
[reply] true
